Target: Gal(a1-3)Gal(b1-3)GlcNAc(b1-3)GalNAc
Assay: glycan array binding signal (z-score within array); higher = stronger binding
Details: glycan notation: IUPAC condensed, linker removed
About 410 targets per protein were measured; listed, in parts, are those with the strongest signals and a random draw of the rest.
Parameter measured: glycan array binding signal (z-score)
Answers are plain numbers.

Query block: Tell us which glycan array binding signal (z-score) value is on record for ArathEULS3 TAP (Arabidopsis thaliana) (protein) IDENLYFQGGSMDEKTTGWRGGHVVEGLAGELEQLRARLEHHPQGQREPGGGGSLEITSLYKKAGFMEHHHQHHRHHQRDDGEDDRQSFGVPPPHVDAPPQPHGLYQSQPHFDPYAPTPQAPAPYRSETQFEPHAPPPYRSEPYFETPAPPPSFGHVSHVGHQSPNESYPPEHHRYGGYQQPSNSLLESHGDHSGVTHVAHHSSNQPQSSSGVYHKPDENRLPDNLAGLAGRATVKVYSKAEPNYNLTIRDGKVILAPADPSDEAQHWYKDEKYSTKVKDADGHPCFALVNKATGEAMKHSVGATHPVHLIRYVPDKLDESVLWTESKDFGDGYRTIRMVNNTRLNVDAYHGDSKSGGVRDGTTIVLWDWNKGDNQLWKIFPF
Result block: 0.549
